- Tested on: H1299 T18
- Test Name: MTS cell viability assay, H1299 T18 resistant variant vs H1299 Parental
- Format: cell-based, human
- Protocol Conditions: SR = [IC50 of Parental]/[IC50 of Resistant]; H1299 T18 vs H1299 Parental
Quantity Name: H1299 T18 SR (Selectivity Ratio)
Give bare numbers.

{"Compound": "COc1cc2nc(N3CCCN(C)CC3)nc(NC3CCN(Cc4ccccc4)CC3)c2cc1OC [BIX 01294]", "Observed Value": 0.9}
{"Compound": "NC1(c2ccc(-c3nc4ccn5c(=O)[nH]nc5c4cc3-c3ccccc3)cc2)CCC1 [MK-2206]", "Observed Value": 0.7}

Please examine the following record next.
Tell me reported H1299 T18 SR (Selectivity Ratio) for CCC1=C[C@@H]2CN(C1)Cc1c([nH]c3ccccc13)[C@@](C(=O)OC)(c1cc3c(cc1OC)N(C)[C@H]1[C@@](O)(C(=O)OC)[C@H](OC(C)=O)[C@]4(CC)C=CCN5CC[C@]31[C@@H]54)C2 [Vinorelbine] , tested with H1299 T18.
0.03
